tested on: U2OS PTBP1-KO; test: maximum observed lethal fraction; higher = more cell death; settings: 3.16 µM;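 also: FLICK assay: SYTOX Green fluorescence of dead cells tracked over time after drugging in 96-well plates, with total cell counts taken from Triton X-100 lysed wells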
Would you mind telling me the reported maximum observed lethal fraction of each entry?
The answer should be written as a number, with no unit following it.

// lookup maximum observed lethal fraction for COc1cc([C@@H]2c3cc4c(cc3[C@@H](O[C@@H]3O[C@@H]5CO[C@@H](c6cccs6)O[C@H]5[C@H](O)[C@H]3O)[C@H]3COC(=O)[C@H]23)OCO4)cc(OC)c1O [Teniposide]
0.686

What about this compound? COC(=O)C[C@](O)(CCCC(C)(C)O)C(=O)O[C@@H]1C(OC)=C[C@]23CCCN2CCc2cc4c(cc2[C@H]13)OCO4 [Homoharringtonine]
0.184

What about this compound? C[C@H]1CCC/C=C/[C@@H]2C[C@H](O)C[C@H]2[C@H](O)/C=C/C(=O)O1 [Brefeldin A]
0.29

What about this compound? Nc1ccc(-c2ccc3ncc4ccc(=O)n(-c5cccc(C(F)(F)F)c5)c4c3c2)cn1 [Torin2]
0.363

What about this compound? CC[C@@]1(O)C(=O)OCc2c1cc1n(c2=O)Cc2cc3c(CN(C)C)c(O)ccc3nc2-1 [Topotecan]
0.106

What about this compound? Nc1ncnc2c1ncn2[C@@H]1O[C@H](CO)C[C@H]1O [Cordycepin]
0.0646

What about this compound? COc1cc([C@@H]2c3cc4c(cc3[C@@H](O[C@@H]3O[C@@H]5CO[C@@H](C)O[C@H]5[C@H](O)[C@H]3O)[C@H]3COC(=O)[C@H]23)OCO4)cc(OC)c1O [Etoposide]
0.0981

What about this compound? CNCc1ccc(-c2[nH]c3cc(F)cc4c3c2CCNC4=O)cc1 [Rucaparib]
0.0685

What about this compound? CN(C)C(=O)c1cc2cnc(Nc3ccc(N4CCNCC4)cn3)nc2n1C1CCCC1 [Ribociclib]
0.0751

What about this compound? CC1(C)CCC(c2ccc(Cl)cc2)=C(CN2CCN(c3ccc(C(=O)NS(=O)(=O)c4ccc(N[C@H](CCN5CCOCC5)CSc5ccccc5)c(S(=O)(=O)C(F)(F)F)c4)cc3)CC2)C1 [ABT-263]
0.131

What about this compound? CC(=O)N[C@H]1[C@@H](O[C@@H]2O[C@H](CC(O)[C@H]3O[C@@H](n4ccc(=O)[nH]c4=O)[C@H](O)[C@@H]3O)[C@H](O)[C@H](O)[C@H]2NC(=O)/C=C/CC(C)C)O[C@H](CO)[C@@H](N)[C@@H]1O (stereo partly drawn) [Tunicamycin]
0.345

What about this compound? COc1ccc(C[C@H]2NC[C@H](O)[C@H]2OC(C)=O)cc1 [Anisomycin]
0.239

What about this compound? C=CC(=O)Nc1ccc(C(=O)Nc2[nH]nc3c2CN(C(=O)N[C@H](CN(C)C)c2ccccc2)C3(C)C)cc1 [YKL-5-124]
0.0884

###

test system: U2OS; assay: maximum observed lethal fraction; higher = more cell death; settings: 0.1 µM
REPORTED_PROPERTY: maximum observed lethal fraction
The answer should be written as a number, with no unit following it.

// lookup maximum observed lethal fraction for NC1(C(=O)N[C@@H](CCO)c2ccc(Cl)cc2)CCN(c2nc[nH]c3nccc2-3)CC1
0.066

What about this compound? COc1cc([C@@H]2c3cc4c(cc3[C@@H](O[C@@H]3O[C@@H]5CO[C@@H](c6cccs6)O[C@H]5[C@H](O)[C@H]3O)[C@H]3COC(=O)[C@H]23)OCO4)cc(OC)c1O [Teniposide]
0.0749

What about this compound? O=C(NOC[C@H](O)CO)c1ccc(F)c(F)c1Nc1ccc(I)cc1F
0.077

What about this compound? CN(C)C/C=C/C(=O)Nc1ccc(C(=O)Nc2cccc(Nc3ncc(Cl)c(-c4c[nH]c5ccccc45)n3)c2)cc1
0.452

What about this compound? CC1(C)CCC(c2ccc(Cl)cc2)=C(CN2CCN(c3ccc(C(=O)NS(=O)(=O)c4ccc(N[C@H](CCN5CCOCC5)CSc5ccccc5)c(S(=O)(=O)C(F)(F)F)c4)cc3)CC2)C1
0.0623

What about this compound? Cc1[nH]c2ccccc2c1CCNCc1ccc(/C=C/C(=O)NO)cc1
0.761

What about this compound? CC[C@@]1(O)C(=O)OCc2c1cc1n(c2=O)Cc2cc3c(CN(C)C)c(O)ccc3nc2-1
0.0706
